Hey, just so you know, these numbers are from patent US10344017B2.

MEASURED_ON: ERK5 (Homo sapiens, UniProt Q13164)
Construct: made in house
Sequence (Q13164 whole entry): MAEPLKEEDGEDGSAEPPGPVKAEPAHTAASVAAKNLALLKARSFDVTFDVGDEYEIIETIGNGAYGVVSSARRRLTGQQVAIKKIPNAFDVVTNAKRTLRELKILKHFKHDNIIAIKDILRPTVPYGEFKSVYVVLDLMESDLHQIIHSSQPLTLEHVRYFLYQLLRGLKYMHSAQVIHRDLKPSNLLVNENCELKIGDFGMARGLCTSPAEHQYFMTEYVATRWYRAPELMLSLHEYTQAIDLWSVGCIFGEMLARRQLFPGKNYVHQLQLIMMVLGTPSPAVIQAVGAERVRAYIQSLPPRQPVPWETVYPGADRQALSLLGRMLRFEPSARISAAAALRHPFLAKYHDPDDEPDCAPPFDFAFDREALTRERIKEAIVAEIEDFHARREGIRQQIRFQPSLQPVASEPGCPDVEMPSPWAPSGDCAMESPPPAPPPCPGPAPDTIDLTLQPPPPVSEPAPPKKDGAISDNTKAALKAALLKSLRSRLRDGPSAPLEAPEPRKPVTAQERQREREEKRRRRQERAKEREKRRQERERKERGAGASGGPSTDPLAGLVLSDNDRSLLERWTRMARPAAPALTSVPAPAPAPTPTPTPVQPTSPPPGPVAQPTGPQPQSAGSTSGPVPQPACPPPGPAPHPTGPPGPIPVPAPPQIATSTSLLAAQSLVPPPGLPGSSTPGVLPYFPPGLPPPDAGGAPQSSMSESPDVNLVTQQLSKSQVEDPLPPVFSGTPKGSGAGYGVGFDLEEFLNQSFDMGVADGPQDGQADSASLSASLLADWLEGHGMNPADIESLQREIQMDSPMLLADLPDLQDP
ASSAY_NAME: ERK5 IMAP assay (fluorescence polarisation)
Type: biochemical
STATED_CONDITIONS: average (e.g. geometric mean) where more than one data point; read-out: ERK5 IC50
pIC50: −log10 of the molar value.
Short version: pIC50 at least 6 is t, less is f.

QUERY: Test whether the compound O=C(Nc1cnn(Cc2cccnc2)c1)c1cc(C(=O)c2c(Cl)ccc(Cl)c2F)c[nH]1 records pIC50 of 6 or higher.
RESULT: t

QUERY: Test whether the compound O=C(Nc1ccc2cn[nH]c2c1)c1cc(C(=O)c2c(F)cccc2Br)c[nH]1 records pIC50 of 6 or higher.
RESULT: f

Moving on to another compound below.
QUERY: Test whether the compound CC(=O)OC1CCN(c2ncc(NC(=O)c3cc(C(=O)c4c(Cl)ccc(Cl)c4F)c[nH]3)cn2)CC1 records pIC50 of 6 or higher.
RESULT: f

----------
MEASURED_ON: ERK5 (Homo sapiens)
Construct: made in house
ASSAY_NAME: ERK5 IMAP assay (fluorescence polarisation)
Assay type: biochemical
STATED_CONDITIONS: average (e.g. geometric mean) where more than one data point; read-out: ERK5 IC50
Below: a set of entries, each annotated with reported log10(IC50).
Scale: decimal log of IC50, IC50 in nM.

// below: answered molecules
// molecule O=C(Nc1cccnc1)c1cc(C(=O)c2c(Cl)ccc(Cl)c2F)c[nH]1 , assay ERK5 (Homo sapiens), log10(IC50) value: 1.82

// molecule O=C(Nc1cccnc1)c1cc(C(=O)c2c(Cl)ccc(OC3CCOCC3)c2F)c[nH]1 , assay ERK5 (Homo sapiens), log10(IC50) value: 3.24

// molecule O=C(NC1CCNCC1)c1cc(C(=O)c2c(F)cccc2C2CC2)c[nH]1 , assay ERK5 (Homo sapiens), log10(IC50) value: 3.76

// molecule CN1CCC(NC(=O)c2cc(C(=O)c3c(F)ccc(F)c3Cl)c[nH]2)CC1 , assay ERK5 (Homo sapiens), log10(IC50) value: 2.80

// molecule Cn1cc(NC(=O)c2cc(C(=O)c3c(Cl)ccc(OC4CCOC4)c3F)c[nH]2)cn1 (centres unmarked) , assay ERK5 (Homo sapiens), log10(IC50) value: 2.74

// molecule O=C(Nc1ccc(CO)nc1)c1cc(C(=O)c2c(Cl)ccc(Cl)c2F)c[nH]1 , assay ERK5 (Homo sapiens), log10(IC50) value: 2.30

// molecule O=C(Nc1ccc(OC2COC2)nc1)c1cc(C(=O)c2c(Cl)ccc(Cl)c2F)c[nH]1 , assay ERK5 (Homo sapiens), log10(IC50) value: 2.94

// molecule CC(C)(C)OC(=O)N1CCC(NC(=O)c2cc(C(=O)c3c(Cl)ccc(Cl)c3F)c[nH]2)CC1 , assay ERK5 (Homo sapiens), log10(IC50) value: 3.13

---
// molecule Cc1ccc(Cl)c(C(=O)c2c[nH]c(C(=O)NC3CCN(C)CC3)c2)c1F , assay ERK5 (Homo sapiens), log10(IC50) value: 2.69

// molecule Cc1ccc(Cl)c(C(=O)c2c[nH]c(C(=O)Nc3cncnc3)c2)c1F , assay ERK5 (Homo sapiens), log10(IC50) value: 2.42

// molecule O=C(Nc1cncnc1)c1cc(C(=O)c2c(F)cccc2Br)c[nH]1 , assay ERK5 (Homo sapiens), log10(IC50) value: 2.82
